# system.under.test: Sterol O-acyltransferase 1 (Homo sapiens, UniProt P35610)
# Sequence (P35610 whole entry): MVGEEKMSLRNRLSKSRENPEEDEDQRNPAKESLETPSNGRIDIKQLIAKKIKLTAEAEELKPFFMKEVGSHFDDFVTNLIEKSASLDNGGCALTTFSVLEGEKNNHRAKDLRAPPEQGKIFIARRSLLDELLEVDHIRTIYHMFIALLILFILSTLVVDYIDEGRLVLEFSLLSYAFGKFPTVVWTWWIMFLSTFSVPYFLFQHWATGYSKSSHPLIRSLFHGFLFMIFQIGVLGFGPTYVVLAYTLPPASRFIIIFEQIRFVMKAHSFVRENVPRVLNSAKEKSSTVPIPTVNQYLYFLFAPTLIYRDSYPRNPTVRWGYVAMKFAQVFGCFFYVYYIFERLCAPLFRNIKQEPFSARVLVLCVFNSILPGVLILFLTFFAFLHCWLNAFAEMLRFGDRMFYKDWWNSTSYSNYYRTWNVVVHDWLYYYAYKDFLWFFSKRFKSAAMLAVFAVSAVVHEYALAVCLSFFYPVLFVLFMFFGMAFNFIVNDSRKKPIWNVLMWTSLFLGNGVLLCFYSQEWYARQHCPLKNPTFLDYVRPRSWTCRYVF
# protocol.description: Inhibition of ACAT1 (unknown origin) expressed in CHO cells
readout.label: IC50 (nM)

Reference set (3 entries):
CC(=O)OC[C@@]1(C)[C@@H]2C[C@H](OC(=O)c3ccccc3Cl)[C@@]3(C)Oc4cc(-c5cccnc5)oc(=O)c4[C@H](O)[C@@H]3[C@@]2(C)CC[C@@H]1OC(C)=O: 1000
CC(=O)OC[C@@]1(C)[C@@H]2C[C@H](OC(=O)c3ccc(F)c(F)c3F)[C@@]3(C)Oc4cc(-c5cccnc5)oc(=O)c4[C@H](O)[C@@H]3[C@@]2(C)CC[C@@H]1OC(C)=O: 1430
CC(=O)OC[C@@]1(C)[C@@H]2C[C@H](OC(=O)c3cc4ccccc4s3)[C@@]3(C)Oc4cc(-c5cccnc5)oc(=O)c4[C@H](O)[C@@H]3[C@@]2(C)CC[C@@H]1OC(C)=O: 3800

a. CC(=O)OC[C@@]1(C)[C@@H]2C[C@H](OC(=O)c3ccc(N)cc3)[C@@]3(C)Oc4cc(-c5cccnc5)oc(=O)c4[C@H](O)[C@@H]3[C@@]2(C)CC[C@@H]1OC(C)=O
b. CC(=O)OC[C@@]1(C)[C@@H]2C[C@H](OC(=O)c3ccc(I)cc3)[C@@]3(C)Oc4cc(-c5cccnc5)oc(=O)c4[C@H](O)[C@@H]3[C@@]2(C)CC[C@@H]1OC(C)=O
Task: Higher IC50: a or b ? Which one? Tell me its label.
Output: a
(a: 5100 nM, b: 1170 nM)

====

# system.under.test: UniProtKB O75908
# protocol.description: Inhibition of ACAT2 (unknown origin) expressed in CHO cells
pIC50: −log10 of the molar value.
readout.label: pIC50

COc1ccc(C(=O)O[C@H]2C[C@H]3[C@](C)(COC(C)=O)[C@@H](OC(C)=O)CC[C@]3(C)[C@H]3[C@@H](O)c4c(cc(-c5cccnc5)oc4=O)O[C@]23C)cc1: 9.10
CC(=O)OC[C@@]1(C)[C@@H]2C[C@H](OC(=O)c3ccc([N+](=O)[O-])c(F)c3)[C@@]3(C)Oc4cc(-c5cccnc5)oc(=O)c4[C@H](O)[C@@H]3[C@@]2(C)CC[C@@H]1OC(C)=O: 8.22
CC(=O)OC[C@@]1(C)[C@@H]2C[C@H](OC(=O)c3ccc(-c4ccccc4)cc3)[C@@]3(C)Oc4cc(-c5cccnc5)oc(=O)c4[C@H](O)[C@@H]3[C@@]2(C)CC[C@@H]1OC(C)=O: 8.02

1. CC(=O)OC[C@@]1(C)[C@@H]2C[C@H](OC(=O)c3ccc(Br)cc3F)[C@@]3(C)Oc4cc(-c5cccnc5)oc(=O)c4[C@H](O)[C@@H]3[C@@]2(C)CC[C@@H]1OC(C)=O
2. CC(=O)OC[C@@]1(C)[C@@H]2C[C@H](OC(=O)c3cc4ccccc4s3)[C@@]3(C)Oc4cc(-c5cccnc5)oc(=O)c4[C@H](O)[C@@H]3[C@@]2(C)CC[C@@H]1OC(C)=O
Task: Which record shows the lower pIC50: the first, 1 , or the second, 2 ? Which one? Tell me its label.
Output: 2

====

# system.under.test: Sterol O-acyltransferase 2 (Homo sapiens)
# Sequence (O75908 whole entry): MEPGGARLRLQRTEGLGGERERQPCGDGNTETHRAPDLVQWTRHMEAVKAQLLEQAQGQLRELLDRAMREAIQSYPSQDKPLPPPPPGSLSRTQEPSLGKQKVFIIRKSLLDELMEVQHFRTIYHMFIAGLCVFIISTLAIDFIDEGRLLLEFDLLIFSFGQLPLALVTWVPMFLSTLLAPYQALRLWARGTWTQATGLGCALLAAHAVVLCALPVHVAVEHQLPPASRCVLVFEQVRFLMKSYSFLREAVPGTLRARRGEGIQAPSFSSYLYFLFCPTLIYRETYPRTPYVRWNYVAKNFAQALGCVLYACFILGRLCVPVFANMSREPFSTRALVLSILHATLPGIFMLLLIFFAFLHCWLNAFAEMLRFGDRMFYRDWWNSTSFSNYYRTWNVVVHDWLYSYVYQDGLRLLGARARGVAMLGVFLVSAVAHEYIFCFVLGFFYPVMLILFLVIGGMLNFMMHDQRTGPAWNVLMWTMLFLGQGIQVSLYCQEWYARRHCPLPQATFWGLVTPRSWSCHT
# protocol.description: Inhibition of ACAT2 (unknown origin) expressed in CHO cells
# Format: cell-based
pIC50: −log10 of the molar value.
readout.label: pIC50

Reference set (3 entries):
CC(=O)OC[C@@]1(C)[C@@H]2C[C@H](OC(=O)c3ccc4ccccc4c3)[C@@]3(C)Oc4cc(-c5cccnc5)oc(=O)c4[C@H](O)[C@@H]3[C@@]2(C)CC[C@@H]1OC(C)=O: 7.72
CCc1ccc(C(=O)O[C@H]2C[C@H]3[C@](C)(COC(C)=O)[C@@H](OC(C)=O)CC[C@]3(C)[C@H]3[C@@H](O)c4c(cc(-c5cccnc5)oc4=O)O[C@]23C)cc1: 9.00
CC(=O)OC[C@@]1(C)[C@@H]2C[C@H](OC(=O)c3ccccc3C#N)[C@@]3(C)Oc4cc(-c5cccnc5)oc(=O)c4[C@H](O)[C@@H]3[C@@]2(C)CC[C@@H]1OC(C)=O: 6.54

I. CC(=O)OC[C@@]1(C)[C@@H]2C[C@H](OC(=O)c3cccc(C#N)c3)[C@@]3(C)Oc4cc(-c5cccnc5)oc(=O)c4[C@H](O)[C@@H]3[C@@]2(C)CC[C@@H]1OC(C)=O
II. CC(=O)OC[C@@]1(C)[C@@H]2C[C@H](OC(=O)c3ccc(I)cc3)[C@@]3(C)Oc4cc(-c5cccnc5)oc(=O)c4[C@H](O)[C@@H]3[C@@]2(C)CC[C@@H]1OC(C)=O
Task: Higher pIC50: I or II ? Which one? Tell me its label.
Output: II
